Tested on: MS2 coat protein
testDescription: apparent KD of MS2 coat protein, switch OFF state (with FMN for OFF switches, without FMN for ON switches); designed switch direction (-1 OFF switch, 1 ON switch): -1; higher = weaker reporter binding
testContext: FMN input: 0 or 200 uM; Eterna round: R93 (includes R88 designs)
Note to self: values exactly at 30 nM are met. So apparent KD of MS2 coat protein at or above 30 nM is met, below is not met.

Study these solved cases before continuing.
INSERT INTO assay_data (itemsequence, discretelabel) VALUES
  ('AAGAAGUGAGGAUAUCGAAGACAGACGAAAAGUCUGUCAAGCGAGAAGGCACAUGAGGAUCACCCAUGUGGAAG [Mat - Exaclusion 4 - Eli mod - D80]', 'met'),
  ('AAAAAUGGAGGAUAUACAUGAGGAUCACCCAUGUGUAACUAAACAAAACACAAAAAAAGUAGAAGGCCAAAAAA [Gilly Gone Silly 6 - Jieux - Exclusion 3]', 'not met'),
  ('AAAAAGUGAGGAUAUGCGAAGGCGUCUGAUAGACGAGGCUAGCAGAAGGCACAUGAGGAUCACCCAUGUGGGAG [Mat - Exclusion 4 - Eli mod - D93]', 'met'),
  ('AAGAACAGAGGAUAUACAUGAGGAUCACCCAUGUAAAAGAAAGAAAGGGAAAAGAAAAGUAGAAGGCUGAAGAA [Neferkare Heqawaset Amenemnisu]', 'met');

With those in mind, consider the next sequence.
Test whether the sequence AGCUGGUUAGGAUAUACAUGAGGAUCACCCAUGUUAAAAAAAAAAAAAAGAUUAAAGUGUAGAAGGGAUUAGUA [Banishment 9 - Jieux - Exclusion 3] records apparent KD of MS2 coat protein of 30 nM or higher.
met

---

System: MS2 coat protein
testDescription: apparent KD of MS2 coat protein; designed switch direction (-1 OFF switch, 1 ON switch): 1; higher = weaker reporter binding
testContext: input ligand: FMN 200 uM
readout: apparent KD of MS2 coat protein (nM)
Give just the numeric value; nM need not be written.

# apparent KD of MS2 coat protein lookup, item UACUGAGUCGUAGGAUAUGUAGGAUAUGGCGAGAGCUAAGCUUGGAAGUCACUUCUGCCAGAAGGACAGAAGGACGACUCUCUC [pwkr ssNG2 2FMN + F9.14] (Eterna round: R96, puzzle: Same State NG 2)
705

Now the same for UUUGCAUGACGAGGAUAUCAUUUAUUUCUUGAUUGAGAAGGCGUUUUUUUUAUUACCUAACAUGAGGAUCACCCAUGUGACAGU [JR_SSNG1_Sub045] (Eterna round: R96, puzzle: Same State NG 1)
14.8

Now the same for UAUGAAUUGCAAGGAUAUUGAUAACAUGAGGAUCACCCAUGUAAUUGUUCGAGUUAGAUUAGUUACAAGAAGGUGCUAUUGUUU [JR_SSNG2_Sub038] (Eterna round: R96, puzzle: Same State NG 2)
350

Now the same for GUGAAGAAUUAAGGAUAUCGAGUCAAGAUGUUAAACAUGAGGAUCACCCAUGUGGGUUGCGGUAUCGAGAAGGUAAAUUACGGG [salish99_SSNG2_r04_503] (Eterna round: R96, puzzle: Same State NG 2)
34.6

Now the same for UUAGUCAUGUAAGGAUAUGCAGCCGUUUCGGCUGCAGAAGGUACUAUAAUUACAUGAGGAUCACCCAUGUUAUAAAAUUUAUAU [JL SSNG1 1.24] (Eterna round: R96, puzzle: Same State NG 1)
19.9

Now the same for AUAAGAAACACAGGAUAUACCGCACUUAACGCGGUAGAAGGGUGGGACAUGAGGAUCACCCAUGUGGCCCGGGCGCCGGACCGC [Edquzative] (Eterna round: R96, puzzle: Same State NG 1)
556

---

apparent KD of MS2 coat protein values by entry
System: MS2 coat protein
testDescription: apparent KD of MS2 coat protein, switch OFF state (with FMN for OFF switches, without FMN for ON switches); designed switch direction (-1 OFF switch, 1 ON switch): -1; higher = weaker reporter binding
testContext: FMN input: 0 or 200 uM; Eterna round: R93 (includes R88 designs)
Entry format: amount then unit.

Below: 10 sequences and their reported apparent KD of MS2 coat protein.
INSERT INTO assay_data (itemsequence, readout, result) VALUES
  ('AGUCUGAGAGGAUAUACAUAGGAAAAAAAAGUAAGAUCCCUACAUGAGGAUCACCCAUGUAGAAGGCUCUGACA [Ex2 Design 142: Sub-opt 6]', 'apparent KD of MS2 coat protein', '67.7 nM'),
  ('AAGAAGUCAGGAUAUGUCUGUGCGAAAAAAAAAAAGUGCAGACAGAAGGGACAUGAGGAUCACCCAUGUGGAAA [Florian 65% 7]', 'apparent KD of MS2 coat protein', '55.3 nM'),
  ('AAACAACAUGAGGAUCACCCAUGUUAGGAUAUGAACGAAAAUAAAUAAAAAUAAAAGUUCAGAAGGGACAAAAA [66%, Wbt, 20]', 'apparent KD of MS2 coat protein', '28.2 nM'),
  ('AAAAAUGGAGGAUAUACAUGAGGAUCACCCAUGUGUGGCCAUACUAUGUGGGCGUCAGGUAGAAGGCCAAAAAA [Gilly Gone Silly 24 - Jieux - Exclusion 3]', 'apparent KD of MS2 coat protein', '56 nM'),
  ('GGCUGGCGAGGAUAUACAUGAGGAUCACCCAUGUGAGAGAAAAAAGUGAGAAAGAAAAGUAGAAGGCGCUGGCG [salish99-ex3-55]', 'apparent KD of MS2 coat protein', '81.4 nM'),
  ('AAAAUACGAGGAUAUACAUGAGGAUCACCCAUGUCAAAAAAUGACUACACAAAAGAAAGUAGAAGGCGUAAAAA [Ex 3 May 16]', 'apparent KD of MS2 coat protein', '30.4 nM'),
  ('CAAAGGUGAGGAUAUGCAUAACUAUGACGAAAGUCAUAAACACAUGAGGAUCACCCAUGUAGAAGGCGCCACAA [e2-3]', 'apparent KD of MS2 coat protein', '57.2 nM'),
  ('AAGAAGGUAGGAUAUACAAAAUAAAAGAAAAGAAAGAAAGAACAUGAGGAUCACCCAUGUAGAAGGACCAAGAA [Khutawyre Wegaf]', 'apparent KD of MS2 coat protein', '17.7 nM'),
  ('CUCAUGUUAGGAUAUUUAUGAAAUGAAGUGAAAGAAAAGAAAAAGAAGGAACAUGAGGAUCACCCAUGUUAGAA [EteRNA is fun!]', 'apparent KD of MS2 coat protein', '35.4 nM'),
  ('CUCUUGUCAGGAUAUUCAAGAAAAGAAGAGAAAGAAAAGAAGAAGAAGGGACAUGAGGAUCACCCAUGUAAGAA [EteRNA is fun!]', 'apparent KD of MS2 coat protein', '67.2 nM');

# apparent KD of MS2 coat protein lookup, item GGAGGCCAAGGAUAUACAUGAGGAUCACCCAUGUGAGAGAAAAAAGUGAGAAAGAAAAGUAGAAGGUGGUUUCG [salish99-ex3-129]
131 nM

Now the same for ACAAGAUCAGGAUAUACAUGAGGAUCACCCAUGUGAAAGAACGAUUAACGACCAGCAAGUAGAAGGGAUCAGGA [Ruby 82]
28.5 nM

Now the same for UCCUGACAUGAGGAUCACCCAUGUCAGGAUAUAGUAUGAAAAAAAAAAAAAAAAAAUACUAGAAGGGACAUGGG [Design 12: Super Stable Short Helix 3]
21.6 nM

Now the same for CUCAAGUGAGGAUAUACAAAAAGUAAAUAAGUAAAACAAAAGUAGAAGGCACAUGAGGAUCACCCAUGUAAAUA [JR_Exc004_Sub301]
63.1 nM

Now the same for AAAAAACAUGAGGAUCACCCAUGUGAGGAUAUGCAAAACCCAUAUAAAAAGGGAAAAAGUAGAAGGCGCAAAAA [wbt round 1 mod 9]
17.4 nM

Now the same for AAGAACGCAGGAUAUACAUGAGGAUCACCCAUGUAAAAGAAAGAAGGGAAAGAGAAAAGUAGAAGGGCGAAGAA [Usermaatre-setepenamun Iuput I]
41.8 nM

Now the same for AAAGGUACAGGAUAUGCGUGGAAAAAGUGUAUUCAAAAAAAACAUGAGGAUCACCCAUGUAGAAGGGUACCAAA [MS2 Riboswitches On Chip Exclusion 2 wbt1]
253 nM

Now the same for AAGAAGCGAGGAUAUACAAAAUAAAAGAAAAGAAAGAAAGAACAUGAGGAUCACCCAUGUAGAAGGUGCAAGAA [Sehetepkare Intef IV]
43.5 nM

Now the same for AGUUGGCGAGGAUAUACAUGAGGAUCACCCAUGUGAGAGUAAAAAGUGAGAAAGAAAAGUAGAAGGCGCUCACA [JL Lego Mod 14]
46.3 nM

Where these numbers come from: the supplement of paper PMC9170038
